Target: 5-hydroxytryptamine receptor 5A (Homo sapiens) (UniProt P47898)
Sequence (P47898 whole entry, looked up): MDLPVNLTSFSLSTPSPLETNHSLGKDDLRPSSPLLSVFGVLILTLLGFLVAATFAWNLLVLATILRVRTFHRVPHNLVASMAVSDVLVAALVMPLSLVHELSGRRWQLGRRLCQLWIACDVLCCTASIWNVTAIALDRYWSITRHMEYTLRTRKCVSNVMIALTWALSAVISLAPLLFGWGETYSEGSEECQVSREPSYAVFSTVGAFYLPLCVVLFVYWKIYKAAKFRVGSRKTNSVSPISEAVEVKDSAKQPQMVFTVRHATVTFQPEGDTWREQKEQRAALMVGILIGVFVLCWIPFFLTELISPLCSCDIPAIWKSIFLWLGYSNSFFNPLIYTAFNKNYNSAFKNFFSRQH
Assay: HTR5A agonists in cells, counter-screen for OPRM1-OPRD1 heterodimer agonist project, cell-based, luminescence (AID 504905);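 also: 0% = vehicle-treated cells and 100% = reference agonist response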
Conditions: HTR5A agonist counterscreen, at 9.3 µM, stronger effect = higher value
The other results are listed elsewhere or left out.
Reported activation by item:

{"columns": ["compound", "measure-unit", "activation"],
 "data": [
  ["CC1CCCN(CCOCCOc2ccccc2-c2ccccc2)C1 (stereo not given)", "%", 1.05],
  ["COc1cc(C(=O)OC(C)C(=O)NCC2CCCCC2)cc(NC(=O)c2ccco2)c1OC (stereo not given)", "%", -2.12],
  ["COc1ccc(C(CNCC(=O)Nc2ccccc2F)N(C)C)cc1 (stereo not given)", "%", 5.09],
  ["CN(CC(=O)Nc1ccc(Cl)cc1)C(=O)c1ccc(COc2ccccc2)cc1", "%", 5.21],
  ["CN1C(CC(=O)Nc2ccc(Br)cc2)c2ccccc2CC1(C)C (stereo not given)", "%", 5.83],
  ["Cc1ccc(OCC(=O)Nc2ccc(NC(=O)c3cccs3)cc2)c(C)c1", "%", 8.16],
  ["COCCCNc1nc2c(-c3cccc(C)c3)nnn2c2ccc(Cl)cc12", "%", 8.68],
  ["COc1ccc(SC[C@H](Cc2ccccc2)N2CCN(CCc3ccccc3)CCC2=O)cc1", "%", -1.8],
  ["Cc1ccc(CNC(=O)CC(NC(=O)c2ccccc2)c2ccccc2)cc1 (stereo not given)", "%", -9.71],
  ["Cc1ccc(CN(C(=O)c2sc3ccccc3c2Cl)C2CCS(=O)(=O)C2)cc1 (stereo not given)", "%", 1.71]
]}

Cited source for all entries: PubChem BioAssay AID504905
